Sourced from the nanobody polyreactivity screen of Harvey et al. (2022)

Assay: yeast display, Sf9 membrane polyspecificity reagent, FACS + sequencing; frameworks hold sequencing errors
Reported Property: polyreactivity (PSR sort gate)

| Sequence Data | Reported Property | Result |
| --- | --- | --- |
| QVQLVESGGGLVQAGGSLRLICAASGLTFGDYTMGWYRQAPGKERELVAAISTSGGSTYYADSVKGRFTISRDNAKKTVYLLMNSLKPEDTAVYYCNARRTHTRSHYYYWGQGTQVTVSS | polyreactivity (PSR sort gate) | high polyreactivity |
| QVQLVESGGGLVQAGGSLRLSCAASGSIFPFNAMGWYRQAPGKERELVAAISRRGTGTYYADSVKGRFTISRDNAKNTVYLQMNSLKPEDTAVYYCNAVVRAGHYDYWGQGTQVTLSS | polyreactivity (PSR sort gate) | high polyreactivity |
| QVQLVESGGGLVQAGGSLRLSCAASGSIFAPYAMGWYRQAPGTERELVAAITWSGDSTYYADSVKGRFTISRDNAKNTVYLQMNSLKPEDTAVYYCATEEVYGQGNYWGQGTQVTVSS | polyreactivity (PSR sort gate) | low polyreactivity |
| QVQLVESGGGLVQAGGSLRLSCAASGRTIPHNAMGWYRQAPGKERQLVATITAGSGSTYYADSVKGRFTISRDNAKNTVSLQLNSLKPEDTAVYYCNAKWTLYQSDYWYYIYDYWGQGTQVTVSS | polyreactivity (PSR sort gate) | low polyreactivity |
| QVQLEESGGGLVQAGGSLRIICADSGINFRYNAMGLYRKAPGKERELVAGIRKRGGSTYYADSVKGRFTISRDNANNTVYLQMNSLKPEDTEVYYCAALCPTTGRNYHSTPYEYWGQGTQVTVSS | polyreactivity (PSR sort gate) | high polyreactivity |
| QVQLVESGGGLVQAGGSLRLSCAASGFTFRWYTMGWYRQAPGKERELVASIRYGGGSTYYADSVKGRFTISRDNAKNTVYLQMNSLKPEDTAVYYCAAESAWTSQYDYWGVGTQVTVSS | polyreactivity (PSR sort gate) | high polyreactivity |
| QVQLVESGGGLVQAGGSLRFSCAASGSTFRAYAMGWYRQAPGKEREFVASISWSGGRTYYADSVKGRFTISRDNAKNTVYLQMNSLIPEDTAVYYCAADYDVLDYGNLRYGFDYWGQGTKVTVSS | polyreactivity (PSR sort gate) | low polyreactivity |
| QVQLVESGGGIVQAGGSLRLSCAASGRILSRYAMGWYRQAPGKESDLVADISSGGRTHYADSVKGRFTISRDNAKNTVYFQMNSLKPEDSAVYYCAKDYTPYSRRLNSGGYYYWGQGTQVTVSS | polyreactivity (PSR sort gate) | high polyreactivity |

====

Assay: yeast display, Sf9 membrane polyspecificity reagent, FACS + sequencing; frameworks hold sequencing errors
Reported Property: polyreactivity (PSR sort gate)

| Sequence Data | Result |
| --- | --- |
| QVQLVESGGGLVQAGGSLRLSCAASGITFRGYVMGWYRQAPGKERELVADISRRGGSTYADSVKGRFTISRDNAKNTVYLQMNSLKPEDTAVYYCNAGWRPHNLNQVGYSSYGYYYWGQGTQVTVSS | high polyreactivity |
| QVQLVESGGGLVQAGGSLRLSCAASGLTFYYYVMGWYRQAPGKERELVAAISSSGGNTYYADSVKGRFTISRDNEKNTVYLQMNSLKPEDTAVYYCAAGQKRTLDNYWGQGTQVTVSS | high polyreactivity |

====

Experiment: yeast display, Sf9 membrane polyspecificity reagent, FACS + sequencing; frameworks hold sequencing errors

| Sequence Data | polyreactivity (PSR sort gate) |
| --- | --- |
| QVQLVESGGGLVQAGGSLRLTCAASASIFGSAMGWSRQAPGNEMELVASTTDADSVKGRFTISRDNAKNTVYLQMNSLKPEDTSVYYCAADDWDTVEMEYWGQVTQVTVSS | low polyreactivity |
| QVQLVESGGGLVQAGGSLRLRCAASGRIFARNAMGWYRQAPGKERELVAAISSRGSSTYYADSVKGRFTISRDNAKNTVYLQMNSLKPEDTAVYYCNAYYSVYPPGYDYWGQGTQVTVSS | high polyreactivity |
| QVQLVESGGGLVQAGGSLRLSCAASGRTFYYYDMGWYRQAPGKERELVAAIRRSGGSTYYADSVKGRFTISRDNAKNTVYLQMNSLKPEDTAVYYCAAGRRYSGSYDYRGQGTQVTVSS | high polyreactivity |
| QVQLVETGGGLVQAGGSLRLSCAASGNIFRAYPMGWYRQAPGKERELVARINSGAITNYADSVKGRFTISRDNAKNTVYLQMNSLKPDDTAVYYCARDTQYPYYFLMDYWGQGTQVTVSS | low polyreactivity |
| QVQLVESGGGLVQAGGSLRLSCAASGFTFRTYAMGWYRQAPGKERELVAAITGRGSNTYYADSVKGRFTISRDNAKNTVYLQMNSLKPEDTAVYYCNARYYDYRVALRYDYWGQGTQVTVSS | high polyreactivity |
| QVQLVESGGGLVQAGGSLRLSCAASGISFRRYTMGSYRQAPGKERELVDTISLSDGNTYYADSVKGRFTISRDNAKNTVYLQMNSMKPEDTAVYYCNARHTWHQSYDYWGQGTQVSVSS | low polyreactivity |
| QVQLVESGGGLVQAGGSLRLSCAASGYTLGVNAMGWSRQAPGKERELVAAINYIDTRTYYADSVKGRFTISRDNAKNTVYLKLNSLKPEDTAVYYCAARPYVPWVKRYYYWGQGTQVTVSS | low polyreactivity |
| QVQLVQSGGGLVQAGGSLRLSCAASGIIFYVYAMGWYRQAPGKERELVAAISRSGGRTYYADSVKGRFTISRDNPKNTVYLQMNSLKPEDTAVYYCAAVYPRQVSQVWRDDYWGQGTQVTVSS | high polyreactivity |
| QVQLVESGGGLVQAGGSLRLSCAASVSTFALYVMGWYRQAPGKERELVAAITDSSSTYYADSVKGRFTISRDNAKNTVYLQMNSLKPEDTAVYYCAARGRLIYAITYRNSPVYYWGQGTQVTVSS | low polyreactivity |

====

Experiment: yeast display, Sf9 membrane polyspecificity reagent, FACS + sequencing; frameworks hold sequencing errors

| Sequence Data | polyreactivity (PSR sort gate) |
| --- | --- |
| QVQLVESGGGLVQAGGSLRLSCAASGRTFTANAMGWYRQAPGKERELVAGITSRGGGTYYADSVKGRFTISRDNAKNTVYLQMNSLKPEDTAVYYCAAPYNGGGVHSYWEYDYWGQGTQVSVSS | high polyreactivity |
| QVQVVESGGGLVQAGGSLRLSCAASGSIFSSYAMGWYRQAPGKERELVAAITGSGGSTDYADSVKGRFTISRDNAKNTVYLQMNSLKPEDTAVYYCAARRFWPGNSYYYRYYYWGQGTQVTVSS | low polyreactivity |
| QVQLVESGGGLLQAGGSLRLSCAASGSIFYGYAMGWYRQAPGKERELVAAITRGGGTYYADSVKGRFTNSRDNAKITVYLQMNSLKPEDTAVYYCALSFYRRYTPYDYWGQGTQLTVSS | high polyreactivity |
| QVQLVESGVGLVQAGGSLRLSSDASGSIFGTYAMGWYRQAPGKERELVAAITGNGGRTYYADSVKGRFTISRDNAKNTVYLQMHSLKAEDTAVYSCAISSSRGGFYYWGQGNQVTVSS | high polyreactivity |
| QVQLVESGGGLVQAGGSLRLSCAASGFIFGSYAMGWSRQAPGKERELVDAITRGGGNTYYADSVKGRFTISRDNAKNTVYLQMNSLKPEDTAVYYCAAVWGKRGYYYWGQGTQVTVSS | high polyreactivity |
| QVQLEESGGGLVQAGGSLRLSCAASGSTFTPYAMGWYRQAPGKERELVAAISWSGGSTYYADSVKGRFTISRDNAKNTVYLQMNSLKPEDTAVYYCAATYSYRTRAWGWGNYDYWGQGTQVTVSS | high polyreactivity |
| QVQLVESGGGLVQAGGSLRLSCAASGSTFPGNAMGWYRQAPGKERELVAAITSSGGSTDYADSVKGRFTISRDNAKNTVYLQMNSLKPEDTAVYYCNAKDAEHYERFNYWGQGTQVTVSS | low polyreactivity |
| QVQLVESGGGLVQAGGSLRLSCAASGFIFGYYAMGWYRQAPGKERELVAAITSGTSTNYADSVKGRFTISRDNAKYTVYLQMNSLKPDDTAVYYCAADRWRRRFYYWGQGTQVTVSS | high polyreactivity |

====

Assay: yeast display, Sf9 membrane polyspecificity reagent, FACS + sequencing; frameworks hold sequencing errors

| Sequence Data | polyreactivity (PSR sort gate) |
| --- | --- |
| QVQLVESGGGLVQAGGSLRLSCAASGSNFYDNAMGWYRQAPGKERELLAAITTSGDSTYYADSVKGPFTISRDNAKNTVYLQMNSLKPEDTAVYYCAARPRVRSSYRYYYWGQGTQVTVSS | high polyreactivity |
| QVQLVESGGGLVQAGGSLRISCAASGGIFRYVMGWYRQAPGKERELVATISGRGGSTYYADSVKGRFTISRDNAKNTVYLQMNSLKPEDTAVYYCATHSWRRAGYEYWGQGTQVTVSS | high polyreactivity |
